The molecules below each have a reported log10(Ki) tested on 5-hydroxytryptamine receptor 1A (Homo sapiens); the values come from various publications.
Target: 5-hydroxytryptamine receptor 1A (Homo sapiens)
Sequence (P08908 whole entry): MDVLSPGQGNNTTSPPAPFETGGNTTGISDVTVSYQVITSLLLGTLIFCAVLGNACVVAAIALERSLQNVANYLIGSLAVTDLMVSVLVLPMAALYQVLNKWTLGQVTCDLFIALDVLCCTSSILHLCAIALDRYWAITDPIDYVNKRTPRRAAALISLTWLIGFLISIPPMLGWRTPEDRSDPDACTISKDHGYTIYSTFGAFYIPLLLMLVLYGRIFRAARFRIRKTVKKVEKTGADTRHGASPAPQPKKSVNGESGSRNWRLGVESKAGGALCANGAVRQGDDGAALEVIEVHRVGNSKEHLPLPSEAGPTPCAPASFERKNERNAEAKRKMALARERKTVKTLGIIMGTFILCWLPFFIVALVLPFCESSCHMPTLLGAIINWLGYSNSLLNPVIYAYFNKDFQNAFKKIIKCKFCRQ
A value of 2 here means Ki of 100 in nM, since values are log10.

Below, 2 molecules whose answers are already recorded.
{"columns": ["molecule", "endpoint.value"],
 "data": [
  ["O=C(c1ccc(F)cc1)C1CCN([C@H]2CCN(Cc3ccc(F)cc3)C[C@@H]2O)CC1", 3.40],
  ["Clc1cnn(CCCCN2CCN(c3ncccn3)CC2)c1", 1.70]
]}

[in] Value wanted: log10(Ki) (5-hydroxytryptamine receptor 1A (Homo sapiens)) of entry CCc1nn(CCCN2CCN(c3cccc(Cl)c3)CC2)c(=O)n1CCOc1ccccc1
[out] 1.90

[in] Value wanted: log10(Ki) (5-hydroxytryptamine receptor 1A (Homo sapiens)) of entry CCC(CO)NCCOc1ccc2oc3ccccc3c(=O)c2c1 (stereo unspecified)
[out] 2.82

[in] Value wanted: log10(Ki) (5-hydroxytryptamine receptor 1A (Homo sapiens)) of entry CN(C)CCCN1c2ccccc2CCc2ccccc21
[out] 3.76

[in] Value wanted: log10(Ki) (5-hydroxytryptamine receptor 1A (Homo sapiens)) of entry O=c1[nH]c2ccc(C3CCN(Cc4cncc(C5=CCCC5)c4)CC3)cc2[nH]1
[out] 0.80

[in] Value wanted: log10(Ki) (5-hydroxytryptamine receptor 1A (Homo sapiens)) of entry CSc1ccccc1N1CCN(CCCCCC(=O)NC2CCCc3ccccc32)CC1 (stereo unspecified)
[out] 1.72

[in] Value wanted: log10(Ki) (5-hydroxytryptamine receptor 1A (Homo sapiens)) of entry CN(C)S(=O)(=O)c1ccc2cccc(N3CCN(CCCCn4c(O)c5n(c4=O)CCC5)CC3)c2c1
[out] 0.38

[in] Value wanted: log10(Ki) (5-hydroxytryptamine receptor 1A (Homo sapiens)) of entry COc1ccc(Br)c(N2CCN(CCN(C(=O)C3CCCCC3)c3ccccc3OC(F)(F)F)CC2)c1
[out] 0.02
